- assayedSystem: butyryl cholinesterase (BChE) (Homo sapiens)
- Sequence (P06276 29-602, species assumed): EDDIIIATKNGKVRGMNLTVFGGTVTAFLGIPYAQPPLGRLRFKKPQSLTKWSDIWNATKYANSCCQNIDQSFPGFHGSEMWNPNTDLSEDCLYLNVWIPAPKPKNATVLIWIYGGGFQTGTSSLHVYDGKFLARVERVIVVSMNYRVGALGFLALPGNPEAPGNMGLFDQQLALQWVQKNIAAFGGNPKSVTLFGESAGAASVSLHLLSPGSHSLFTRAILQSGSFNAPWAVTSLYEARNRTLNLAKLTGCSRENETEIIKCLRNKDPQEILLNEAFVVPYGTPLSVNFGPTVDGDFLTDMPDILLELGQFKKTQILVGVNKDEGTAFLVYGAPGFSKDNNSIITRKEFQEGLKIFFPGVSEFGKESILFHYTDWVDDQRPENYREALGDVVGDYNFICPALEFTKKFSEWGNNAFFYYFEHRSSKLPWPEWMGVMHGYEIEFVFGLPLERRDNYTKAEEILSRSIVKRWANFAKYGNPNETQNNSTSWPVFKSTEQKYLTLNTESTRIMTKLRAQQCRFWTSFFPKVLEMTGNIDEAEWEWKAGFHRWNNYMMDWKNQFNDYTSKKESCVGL
Label true when IC50 < 300 µM; otherwise false.

Use the examples below as a reference point.
Cc1ccc(NC(=O)CSc2nnc(C3CCCN(S(=O)(=O)c4ccccc4)C3)o2)c(C)c1 (stereo not shown) :: true
CCc1ccc(NC(=O)CSc2nnc(C3CCCN(S(=O)(=O)c4ccccc4)C3)o2)cc1 (stereo not shown) :: true
Cc1cccc(NC(=O)CSc2nnc(C3CCCN(S(=O)(=O)c4ccccc4)C3)o2)c1C (stereo not shown) :: true
Cc1cc(C)cc(NC(=O)CSc2nnc(C3CCCN(S(=O)(=O)c4ccccc4)C3)o2)c1 (stereo not shown) :: false
CCOc1ccc(NC(=O)CSc2nnc(C3CCCN(S(=O)(=O)c4ccccc4)C3)o2)cc1 (stereo not shown) :: false
O=C(CSc1nnc(C2CCCN(S(=O)(=O)c3ccccc3)C2)o1)NCCc1ccccc1 (stereo not shown) :: true

Now consider a different compound.
Ask: Problem: For the compound Cc1cccc([N+](=O)[O-])c1NC(=O)CSc1nnc(C2CCCN(S(=O)(=O)c3ccccc3)C2)o1 (stereo not shown) , is IC50 under 300 µM?
Result: true
